Target: pyruvate dehydrogenase (PDH; E1 component of the pyruvate dehydrogenase complex, PDHC) (Rattus norvegicus, UniProt P26284+P49432)
Construct: gene Pdha1; native PDHC partially purified from rat heart or liver; PDHC in alamethicin-permeabilized rat skeletal muscle mitochondria; with PDHB (E1 beta subunit), within the PDHC with DLAT, DLD and PDHX
Sequence (P26284 30-390): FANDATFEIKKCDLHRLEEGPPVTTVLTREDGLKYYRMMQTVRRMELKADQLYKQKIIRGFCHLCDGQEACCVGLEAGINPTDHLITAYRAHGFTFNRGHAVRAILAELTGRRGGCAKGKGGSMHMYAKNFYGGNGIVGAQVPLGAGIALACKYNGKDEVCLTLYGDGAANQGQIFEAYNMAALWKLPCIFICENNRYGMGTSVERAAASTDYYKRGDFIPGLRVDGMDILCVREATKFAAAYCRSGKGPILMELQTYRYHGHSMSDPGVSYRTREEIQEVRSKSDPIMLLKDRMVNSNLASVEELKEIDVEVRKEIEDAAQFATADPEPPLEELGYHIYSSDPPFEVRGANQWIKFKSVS
Sequence (P49432 31-359): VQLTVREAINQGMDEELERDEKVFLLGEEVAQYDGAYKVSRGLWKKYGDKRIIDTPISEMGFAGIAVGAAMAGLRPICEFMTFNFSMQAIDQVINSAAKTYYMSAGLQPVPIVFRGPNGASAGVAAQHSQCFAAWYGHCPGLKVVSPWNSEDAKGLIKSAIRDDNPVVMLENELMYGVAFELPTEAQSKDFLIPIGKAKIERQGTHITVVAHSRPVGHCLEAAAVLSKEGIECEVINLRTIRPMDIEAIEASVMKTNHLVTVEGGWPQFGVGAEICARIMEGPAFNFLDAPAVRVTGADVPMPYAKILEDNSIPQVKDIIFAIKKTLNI
Sequence (P08461 78-632 partner): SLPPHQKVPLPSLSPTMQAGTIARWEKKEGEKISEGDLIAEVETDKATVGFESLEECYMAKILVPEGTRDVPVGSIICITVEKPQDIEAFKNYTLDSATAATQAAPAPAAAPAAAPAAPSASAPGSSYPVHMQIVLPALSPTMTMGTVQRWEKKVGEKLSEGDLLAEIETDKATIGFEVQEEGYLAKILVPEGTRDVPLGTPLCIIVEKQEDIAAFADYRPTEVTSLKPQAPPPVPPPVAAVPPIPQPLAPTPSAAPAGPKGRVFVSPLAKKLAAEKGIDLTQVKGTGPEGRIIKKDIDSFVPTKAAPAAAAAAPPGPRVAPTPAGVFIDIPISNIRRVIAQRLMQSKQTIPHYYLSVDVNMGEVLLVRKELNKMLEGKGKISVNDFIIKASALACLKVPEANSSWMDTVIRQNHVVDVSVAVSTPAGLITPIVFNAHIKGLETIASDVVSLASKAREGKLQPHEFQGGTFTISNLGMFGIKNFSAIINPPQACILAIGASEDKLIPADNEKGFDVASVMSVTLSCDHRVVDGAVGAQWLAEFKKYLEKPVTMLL
Sequence (Q6P6R2 36-509 partner): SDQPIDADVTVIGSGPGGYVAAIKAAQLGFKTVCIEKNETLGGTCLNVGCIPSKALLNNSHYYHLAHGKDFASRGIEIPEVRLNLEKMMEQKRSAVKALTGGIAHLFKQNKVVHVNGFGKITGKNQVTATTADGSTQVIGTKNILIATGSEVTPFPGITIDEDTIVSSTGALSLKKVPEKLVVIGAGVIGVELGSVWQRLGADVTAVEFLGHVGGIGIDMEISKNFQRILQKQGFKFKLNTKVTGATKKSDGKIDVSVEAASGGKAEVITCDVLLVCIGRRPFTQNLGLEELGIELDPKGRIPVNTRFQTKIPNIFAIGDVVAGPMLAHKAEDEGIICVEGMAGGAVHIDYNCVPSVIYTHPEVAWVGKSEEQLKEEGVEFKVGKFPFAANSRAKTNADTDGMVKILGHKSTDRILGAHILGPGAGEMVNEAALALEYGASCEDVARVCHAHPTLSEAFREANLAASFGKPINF
Assay: overall PDHC reaction by NADH production: Ki in permeabilized mitochondria; IC50 […] with isolated rat heart PDHC ([…] min preincubation)
Assay type: biochemical
pKi: −log10 of the molar value.

- compound: "CC(=O)[PH](=O)O [AcPH, acetyl phosphinate]"
  pKi: 7.00

====

Biological target: pyruvate dehydrogenase (PDH; E1 component of the pyruvate dehydrogenase complex, PDHC) (Rattus norvegicus, UniProt P26284+P49432)
Construct: gene Pdha1; native PDHC partially purified from rat heart or liver; PDHC in alamethicin-permeabilized rat skeletal muscle mitochondria; with PDHB (E1 beta subunit), within the PDHC with DLAT, DLD and PDHX
Test: overall PDHC reaction by NADH production: Ki in permeabilized mitochondria; IC50 […] with isolated rat heart PDHC at […] pyruvate
Assay type: biochemical

- compound: "COP(=O)(O)C(C)=O [AcPMe, methyl ester of acetyl phosphonate]"
  unitAnnotation: "µM"
  Ki: 40
